Molecular target: CHIKV-RSU1 virus (Asian genotype), envelope glycoproteins E2-E1 (Chikungunya virus (strain RSU1))
readout.name: EC90 of neutralisation of CHIKV-RSU1 (FRNT on Vero cells)

binder	experimental.result
CHK-263 (mouse monoclonal antibody) (antibody, V domains shown) VH: QVQLQQSGAELVKPGASVKISCKASGYAFSSYWMNWVKQRPGKGLEWIGQIYPGDGDTNYNGKFKGKATLTADKSSSTAYMQLSSLTSEDSAVYFCARGGLTIDYWGQGTTLTVSS VL: DIVLTQSPATLSVTPGDSVSLSCRASQSISDNLHWYQQKSHESPGLLIKYASQSISGIPSRFSGSGSGTDFTLSINSVETEDFGMYFCQQSNSWPYTFGGGTKLEIK	0.048 µg/mL
CHK-152 (mouse monoclonal antibody) (antibody, V domains shown) VH: QVQLQQPGAALVKPGASAMMSCKASGYTFTSYWITWVKQRPGQGLEWIGDIYPGTGRTIYKEKFKTKATLTVDTSSSTAFMQLNSLTSEDSAVYYCARGYGSPYYALDYWGQGTSVTVSS VL: DIVLTQSPASLAVSQGQRATISCKASQSVDYDGDSYVNWYQQKPGQSPKLLIYDASNLESGIPARFSGSGSGTDFTLNIHPVEEEDVATYYCQESNEDPRTFGGGTKLEIK	0.015 µg/mL
CHK-166 (mouse monoclonal antibody) (antibody, V domains shown) VH: EVRLVESGGGLEQPGGSLKLSCAASGFTFSDYFMYWVRQTPEKRLEWVAYISNGGISTFYSDAVKGRFTISRDNARNTLYLQMSRLKSEDTAIYYCVRQVYGQGYFDYWGQGTTLAVSS VL: QIVLIQSPAIMSASLGERVTMTCTASSSVSSSYLHWYQQKPGSSPKLWIYSSFSLASGVPARFSGSGSGTSYSLTISTMEAEDAATYYCHQYLRSPWTFGGGSKLEIK	2.18 µg/mL
CHK-102 (mouse monoclonal antibody) (antibody, V domains shown) VH: QVQLQQSGAELVKPGASVKISCKTSGYAFSSFWMHWVKQRPGKGLEWIGQIYPGDGDTNYNGKFKDKATLTADKSSNTAYMQLTSLTSEDSAVYFCARNLLFDYWGQGTTLTVSS VL: EILMTQSPAILSVSPGERVSFSCRASQSIGSNIHWYQQRTNGSPRLLIKYASESISGIPSRFSGSGSGTDFTLSINSVESEDIADYYCQQNNIWPFTFGSGTKLEIK	1.32 µg/mL

FYI, the data here is from paper PMC3630103.
